- System: tomato (cv. Rio Grande)
- experimental.details: Pot Assay 2: root development (vigor of roots) of tomato;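 also: visual score 0 to 10 where 0 is no vigor and 10 equals untreated control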
- Type: in vivo
- protocol.conditions: RATE 5 mg; visual value 0 to 10 (10 equal to control)
readout.name: ROOT DEV.

# compound, value.reported
data = [
    ("CCN(Cc1ccc(Cl)nc1)/C(=C/[N+](=O)[O-])NC", 6.6),
    ("Cc1cccc(C)c1N(C(=O)CCl)C1CCOC1=O (stereo not drawn)", 6.6),
    ("Clc1nc(Cl)nc(Nc2ccccc2Cl)n1", 8.1),
    ("CC(C)(C)C(O)C(Oc1ccc(-c2ccccc2)cc1)n1cncn1 (stereo not drawn)", 7.8),
    ("CCCCOCCOCCOCc1cc2c(cc1CCC)OCO2", 6.7),
    ("CCC(N)P(=O)(O)O (stereo not drawn)", 7.9),
]

----------
- Tested on: tomato (cv. Rio Grande)
- experimental.details: Pot Assay 2: root development (vigor of roots) of tomato;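 also: visual score 0 to 10 where 0 is no vigor and 10 equals untreated control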
- Type: in vivo
- protocol.conditions: RATE 0.05 mg; visual value 0 to 10 (10 equal to control)

# molecule, ROOT DEV.
records = [
    ("COc1ccc(/C(=C/C(=O)N2CCOCC2)c2ccc(Cl)cc2)cc1OC", 6.8),
    ("CS(=O)(=O)c1cc(C(F)(F)F)ccc1C(=O)c1cnoc1C1CC1", 7.4),
    ("CC(C)(C)C(O)C(Oc1ccc(-c2ccccc2)cc1)n1cncn1 (stereo not shown)", 7.5),
    ("Clc1nc(Cl)nc(Nc2ccccc2Cl)n1", 6.8),
    ("CCC(N)P(=O)(O)O (stereo not shown)", 6.7),
    ("CCCCOCCOCCOCc1cc2c(cc1CCC)OCO2", 6.5),
    ("CCN(Cc1ccc(Cl)nc1)/C(=C/[N+](=O)[O-])NC", 7.9),
    ("C#CCOC(=O)/C=C(C)/C=C/CC(C)CCCC(C)C (stereo not shown)", 7.4),
    ("CCCCc1c(C)nc(NCC)nc1OS(=O)(=O)N(C)C", 7.8),
    ("Cc1cccc(C)c1N(C(=O)CCl)C1CCOC1=O (stereo not shown)", 7.5),
]

----------
Recorded measurements of ROOT DEV., one per entry
- Tested on: tomato (cv. Rio Grande)
- experimental.details: Pot Assay 2: root development (vigor of roots) of tomato;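 also: visual score 0 to 10 where 0 is no vigor and 10 equals untreated control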
- Assay type: in vivo
- protocol.conditions: RATE 1 mg; visual value 0 to 10 (10 equal to control)
- Protocol: Phytotoxicity of compounds as described herein when used as a nematicide, was measured as follows. […] At that moment, plant emergence was assessed for the plants treated with any of the compounds as described herein, by counting the number of plants per compound-concentration. Vigor of roots was also assessed once the plants are well established so as not to loose plants. […]
readout.name: ROOT DEV.

# compound, readout.name, value.reported
data = [
    ("CS(=O)(=O)c1cc(C(F)(F)F)ccc1C(=O)c1cnoc1C1CC1", "ROOT DEV.", 7.8),
    ("CC1COC(Cn2cncn2)(c2ccc(Oc3ccc(Cl)cc3)cc2Cl)O1 (mixture of isomers)", "ROOT DEV.", 7.9),
    ("CNC(=O)O/N=C(\\SC)C(=O)N(C)C [Oxamyl, reference compound]", "ROOT DEV.", 7.5),
    ("Clc1nc(Cl)nc(Nc2ccccc2Cl)n1", "ROOT DEV.", 8.2),
    ("Cc1cccc(C)c1N(C(=O)CCl)C1CCOC1=O (stereo not drawn)", "ROOT DEV.", 7.6),
    ("CCN(Cc1ccc(Cl)nc1)/C(=C/[N+](=O)[O-])NC", "ROOT DEV.", 7.5),
    ("CCC(N)P(=O)(O)O (stereo not drawn)", "ROOT DEV.", 7.3),
    ("CC(C)(C)C(O)C(Oc1ccc(-c2ccccc2)cc1)n1cncn1 (stereo not drawn)", "ROOT DEV.", 7.2),
    ("CCCCOCCOCCOCc1cc2c(cc1CCC)OCO2", "ROOT DEV.", 7.6),
]

----------
- System: tomato (cv. Rio Grande)
- experimental.details: Pot Assay 2: root development (vigor of roots) of tomato;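 also: visual score 0 to 10 where 0 is no vigor and 10 equals untreated control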
- Format: in vivo
- protocol.conditions: RATE 0.2 mg; visual value 0 to 10 (10 equal to control)
Recorded measurements of ROOT DEV., one per entry

# compound, ROOT DEV.
data = [
    ("CS(=O)(=O)c1cc(C(F)(F)F)ccc1C(=O)c1cnoc1C1CC1", 6.6),
    ("COc1ccc(/C(=C/C(=O)N2CCOCC2)c2ccc(Cl)cc2)cc1OC", 7.9),
    ("Cc1cccc(C)c1N(C(=O)CCl)C1CCOC1=O (stereo not drawn)", 7.2),
    ("CC(C)(C)C(O)C(Oc1ccc(-c2ccccc2)cc1)n1cncn1 (stereo not drawn)", 7.4),
    ("CCCCOCCOCCOCc1cc2c(cc1CCC)OCO2", 7.6),
    ("CCN(Cc1ccc(Cl)nc1)/C(=C/[N+](=O)[O-])NC", 7.7),
    ("Clc1nc(Cl)nc(Nc2ccccc2Cl)n1", 6.9),
    ("CCC(N)P(=O)(O)O (stereo not drawn)", 7.3),
    ("C#CCOC(=O)/C=C(C)/C=C/CC(C)CCCC(C)C (stereo not drawn)", 7.8),
]

----------
- System: Meloidogyne incognita nematodes
- experimental.details: Pot Assay 1: Meloidogyne infection of potato, egg masses/galls on roots
- Type: in vivo
- protocol.conditions: 50 μM; potato in pot; week 8 after inoculation
readout.name: number of egg masses (galls) on roots, Replicate 3

# compound, value.reported
records = [
    ("CC(C)(C)N(NC(=O)c1ccc(Cl)cc1)C(=O)c1ccccc1", 20),
    ("Cc1cc(C2CC2)nc(Nc2ccccc2)n1", 5),
    ("Cc1c(F)c(F)c(COC(=O)C2C(C=C(Cl)C(F)(F)F)C2(C)C)c(F)c1F (racemic)", 30),
    ("CCCCc1c(C)nc(NCC)nc1OS(=O)(=O)N(C)C", 5),
    ("CC1COC(Cn2cncn2)(c2ccc(Oc3ccc(Cl)cc3)cc2Cl)O1 (mixture of isomers)", 10),
    ("CCc1nn(C)c(C(=O)NCc2ccc(C(C)(C)C)cc2)c1Cl", 1),
    ("CC(C)N(C(=O)COc1nnc(C(F)(F)F)s1)c1ccc(F)cc1", 30),
    ("c1coc(-c2nc3ccccc3[nH]2)c1", 15),
    ("CCN(Cc1ccc(Cl)nc1)/C(=C/[N+](=O)[O-])NC", 40),
    ("CC(C)NC(=O)N1CC(=O)N(c2cc(Cl)cc(Cl)c2)C1=O", 20),
]

----------
- System: Meloidogyne incognita nematodes
- experimental.details: Pot Assay 1: Meloidogyne infection of potato, egg masses/galls on roots
- Format: in vivo
- protocol.conditions: 10 μM; potato in pot; week 8 after inoculation
readout.name: number of egg masses (galls) on roots, Replicate 2

# compound, value.reported
records = [
    ("CC1COC(Cn2cncn2)(c2ccc(Oc3ccc(Cl)cc3)cc2Cl)O1 (mixture of isomers)", 60),
    ("CCCCc1c(C)nc(NCC)nc1OS(=O)(=O)N(C)C", 5),
    ("c1coc(-c2nc3ccccc3[nH]2)c1", 50),
    ("CC(C)NC(=O)N1CC(=O)N(c2cc(Cl)cc(Cl)c2)C1=O", 50),
]

----------
- Test system: Meloidogyne incognita
- experimental.details: Root infestation on agar plate: root knot count on potato microplant roots
- Assay type: in vivo
- protocol.conditions: 60 μM in agar, galls counted 5 weeks after inoculation, four replicates
Recorded measurements of Root knot count, average of the replicate counts, one per entry
readout.name: Root knot count, average of the replicate counts

# molecule, value.reported
measured = [
    ("c1coc(-c2nc3ccccc3[nH]2)c1 [XVI]", 14.5),
    ("Cc1c(F)c(F)c(COC(=O)C2C(C=C(Cl)C(F)(F)F)C2(C)C)c(F)c1F (racemic) [LVIII]", 18.25),
    ("CNC1=C(c2cccc(C(F)(F)F)c2)C(=O)C(c2ccccc2)O1 (racemic) [XV]", 18),
    ("CC(C)=CC1C(C(=O)OCN2C(=O)C3=C(CCCC3)C2=O)C1(C)C (mixture of isomers) [LIX]", 19),
    ("CC(C)N(C(=O)COc1nnc(C(F)(F)F)s1)c1ccc(F)cc1 [XIII]", 9.5),
    ("Clc1nc(Cl)nc(Nc2ccccc2Cl)n1 [XLII]", 17.25),
    ("CCc1nn(C)c(C(=O)NCc2ccc(C(C)(C)C)cc2)c1Cl [XXXVIII]", 16.5),
    ("CCNC(=O)NC(=O)C(C#N)=NOC [LII]", 15.5),
    ("O=[N+]([O-])N=C1NCCN1Cc1ccc(Cl)nc1 [XXII]", 12),
    ("COCC(=O)N(c1c(C)cccc1C)N1CCOC1=O [LV]", 17.75),
    ("CC(C)[C@@H](Nc1ccc(C(F)(F)F)cc1Cl)C(=O)OC(C#N)c1cccc(Oc2ccccc2)c1 (stereo partly drawn) [XXXVI]", 0),
    ("N#Cc1c(Cl)c(Cl)c(Cl)c(C#N)c1Cl [IV]", 11.5),
    ("C#CCOC(=O)/C=C(C)/C=C/CC(C)CCCC(C)C (stereo not drawn) [XXVIII]", 8.5),
    ("COc1ccc(/C(=C/C(=O)N2CCOCC2)c2ccc(Cl)cc2)cc1OC [X]", 10.5),
    ("CC(C)NC(=O)N1CC(=O)N(c2cc(Cl)cc(Cl)c2)C1=O [XXV]", 17),
    ("O=C(NC(=O)c1c(F)cccc1F)Nc1cc(Cl)c(Oc2ncc(C(F)(F)F)cc2Cl)c(Cl)c1 [LI]", 17.5),
    ("Nc1nc(N)nc(NC2CC2)n1 [XLV]", 19.5),
    ("CC(C)=CC1C(C(=O)OCc2coc(Cc3ccccc3)c2)C1(C)C (mixture of isomers) [LVII]", 8.5),
    ("CC1COC(Cn2cncn2)(c2ccc(Oc3ccc(Cl)cc3)cc2Cl)O1 (mixture of isomers) [XLIX]", 19.25),
    ("Cc1cc(C2CC2)nc(Nc2ccccc2)n1 [XLIV]", 9.5),
    ("CCN(Cc1ccc(Cl)nc1)/C(=C/[N+](=O)[O-])NC [XXIX]", 17.5),
]

Hey, just so you know, these numbers are from patent US20090209605A1.
